target: cathepsin B (Homo sapiens, UniProt P07858); construct: purchased Sigma; test: Cathepsin B inhibition (KI); assay type: biochemical; details: Table 1, Z-Leu--AA--CONHR; read-out: KI Cat B
measurement.kind: Ki (µM)
Quick reminder: number only, in µM, skip the unit.

Consider the worked cases shown below.
CC(C)C[C@H](NC(=O)OCc1ccccc1)C(=O)NC(Cc1ccccc1)C(=O)C(=O)NCc1nccc2ccccc12 (stereo partly drawn); 9.6
CCC(NC(=O)C(CC(C)C)NC(=O)OCc1ccccc1)C(=O)C(=O)NCCCN1CCc2ccccc2C1 (stereo not drawn); 8

Supply recorded Ki for CCC(NC(=O)C(CC(C)C)NC(=O)OCc1ccccc1)C(=O)C(=O)NCc1ccco1 (stereo not drawn) here. 6

----------
Recorded measurements of pKi, one per entry
biological target: cathepsin B (Homo sapiens, UniProt P07858); construct: purchased Sigma; test: Cathepsin B inhibition (KI); assay type: biochemical; details: Table 1, Z-Leu--AA--CONHR; read-out: KI Cat B
By convention, pKi is the negative base-10 log of a molar concentration.

Below, each entry is followed by its recorded pKi result.
CC[C@H](NC(=O)[C@H](CC(C)C)NC(=O)OCc1ccccc1)C(=O)C(=O)NCCOCCO; 5.70
CC[C@H](NC(=O)[C@H](CC(C)C)NC(=O)OCc1ccccc1)C(=O)C(=O)NCCc1ccccc1OC; 6.20
CCCC(NC(=O)C(CC(C)C)NC(=O)OCc1ccccc1)C(=O)C(=O)NCCCN1CCOCC1 (centres unmarked); 5.38
CCC(NC(=O)C(CC(C)C)NC(=O)OCc1ccccc1)C(=O)C(=O)NCc1ccncc1 (centres unmarked); 5.19

From here, focus on the item given below.
Specify measured pKi for CCC(NC(=O)C(CC(C)C)NC(=O)OCc1ccccc1)C(=O)C(=O)NCCc1ccc(OC)cc1 (centres unmarked) . 6.36

----------
molecular target: Calpain I from human erythrocytes (Homo sapiens); construct: Calpain I was purified from human erythrocytes; from tissue; host or cells: human erythrocytes; test: Calpain I inhibition, Suc-Leu-Tyr-AMC hydrolysis (KI); assay type: biochemical; conditions: Table 1, Z-Leu--AA--CONHR; read-out: KI Cal I
Sequence (P07384 whole entry): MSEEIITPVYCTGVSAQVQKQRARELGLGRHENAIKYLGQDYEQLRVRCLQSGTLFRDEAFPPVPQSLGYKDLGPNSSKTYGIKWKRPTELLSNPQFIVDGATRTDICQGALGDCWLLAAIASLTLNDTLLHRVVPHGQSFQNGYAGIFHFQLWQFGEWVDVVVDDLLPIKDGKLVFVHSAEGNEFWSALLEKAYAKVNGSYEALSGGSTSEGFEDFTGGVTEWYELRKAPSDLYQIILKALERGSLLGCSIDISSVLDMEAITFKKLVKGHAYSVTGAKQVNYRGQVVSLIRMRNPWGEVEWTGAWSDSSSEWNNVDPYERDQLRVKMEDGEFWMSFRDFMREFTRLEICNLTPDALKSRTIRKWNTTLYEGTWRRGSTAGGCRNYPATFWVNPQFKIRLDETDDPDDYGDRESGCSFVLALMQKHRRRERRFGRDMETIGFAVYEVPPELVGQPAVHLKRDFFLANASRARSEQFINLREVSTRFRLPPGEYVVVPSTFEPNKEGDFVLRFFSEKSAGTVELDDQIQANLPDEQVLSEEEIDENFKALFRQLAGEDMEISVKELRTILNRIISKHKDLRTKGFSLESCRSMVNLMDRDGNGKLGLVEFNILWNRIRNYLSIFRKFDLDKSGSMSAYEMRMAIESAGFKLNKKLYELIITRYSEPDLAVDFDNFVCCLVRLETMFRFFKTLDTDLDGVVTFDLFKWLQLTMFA
Sequence (P04632 whole entry partner): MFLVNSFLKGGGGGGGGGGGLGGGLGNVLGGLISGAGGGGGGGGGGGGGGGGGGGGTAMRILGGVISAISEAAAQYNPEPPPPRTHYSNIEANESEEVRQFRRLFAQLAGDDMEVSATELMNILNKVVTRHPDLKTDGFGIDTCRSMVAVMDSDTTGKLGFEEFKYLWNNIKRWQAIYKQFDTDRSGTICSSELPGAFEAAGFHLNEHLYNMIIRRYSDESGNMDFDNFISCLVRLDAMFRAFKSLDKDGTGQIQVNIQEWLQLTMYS
pKi: −log10 of the molar value.
Label rule, in plain words: pKi of 6 and up is satisfied, under 6 is not satisfied.

Check out these entries, answers already filled in.
CCCC(NC(=O)C(CC(C)C)NC(=O)OCc1ccccc1)C(=O)C(=O)NCCCN1CCOCC1 (stereo not drawn); satisfied
CCC(NC(=O)C(CC(C)C)NC(=O)OCc1ccccc1)C(=O)C(=O)NCCCN1CCc2ccccc2C1 (stereo not drawn); satisfied
CC(C)CC(NC(=O)OCc1ccccc1)C(=O)NC(Cc1ccccc1)C(=O)C(=O)NCc1ccc2ccccc2n1 (stereo not drawn); satisfied
CC[C@H](NC(=O)[C@H](CC(C)C)NC(=O)OCc1ccccc1)C(=O)C(=O)NCCc1ccccc1OC; satisfied
CCC(NC(=O)C(CC(C)C)NC(=O)OCc1ccccc1)C(=O)C(=O)NCc1ccccn1 (stereo not drawn); satisfied
CCC(NC(=O)[C@H](CC(C)C)NC(=O)OCc1ccccc1)C(=O)C(=O)NCc1ccc2ccccc2n1 (stereo partly drawn); satisfied
CCC(NC(=O)C(CC(C)C)NC(=O)OCc1ccccc1)C(=O)C(=O)NCC1(C)CC(O)CC(C)(C)C1 (stereo not drawn); satisfied
CC(C)C[C@H](NC(=O)OCc1ccccc1)C(=O)NC(Cc1ccccc1)C(=O)C(=O)NCc1nccc2ccccc12 (stereo partly drawn); not satisfied
CCC(NC(=O)C(CC(C)C)NC(=O)OCc1ccccc1)C(=O)C(=O)NCCc1ccccn1 (stereo not drawn); satisfied
CCC(NC(=O)C(CC(C)C)NC(=O)OCc1ccccc1)C(=O)C(=O)NCC1CCCO1 (stereo not drawn) [Z-Leu-Abu-CONH-CH2 -2-tetrahydrofuryl, Z-Leu-Abu-CONH--CH2 -2-Tetrahydrofuryl]; satisfied

Record CCC(NC(=O)C(CC(C)C)NC(=O)OCc1ccccc1)C(=O)C(=O)NCCCN1CCOCC1 (stereo not drawn) ; criterion: pKi no lower than 6. Met? satisfied

Does the reported pKi for CCC(NC(=O)C(CC(C)C)NC(=O)OCc1ccccc1)C(=O)C(=O)NCCCn1ccnc1 (stereo not drawn) fall at or above the 6 mark? satisfied

Form field: pKi at least 6? Entry: CCC(NC(=O)C(CC(C)C)NC(=O)OCc1ccccc1)C(=O)C(=O)NCCCN1CCCc2ccccc21 (stereo not drawn) satisfied

State whether the measured pKi reaches 6, counting equality as reaching it, for CCC(NC(=O)C(CC(C)C)NC(=O)OCc1ccccc1)C(=O)C(=O)NCc1nc(C)cs1 (stereo not drawn) not satisfied

Decide: is the reported value of pKi for CC[C@H](NC(=O)[C@H](CC(C)C)NC(=O)OCc1ccccc1)C(=O)C(=O)NCc1cc(OC)cc(OC)c1 equal to or greater than 6? not satisfied

Textbook exercise: given the entry CC(C)CC(NC(=O)OCc1ccccc1)C(=O)NC(Cc1ccccc1)C(=O)C(=O)NCCCN1CCOCC1 (stereo not drawn) , state whether its pKi is greater than or equal to 6. satisfied

Exam item: decide whether the reported pKi for CCC(NC(=O)C(CC(C)C)NC(=O)OCc1ccccc1)C(=O)C(=O)NCc1cc(=O)[nH]c(=O)[nH]1 (stereo not drawn) is at least 6. not satisfied
